- target_or_test_system: KSP motor domain (Homo sapiens, UniProt P52732)
- Sequence (P52732 18-359 limits assumed): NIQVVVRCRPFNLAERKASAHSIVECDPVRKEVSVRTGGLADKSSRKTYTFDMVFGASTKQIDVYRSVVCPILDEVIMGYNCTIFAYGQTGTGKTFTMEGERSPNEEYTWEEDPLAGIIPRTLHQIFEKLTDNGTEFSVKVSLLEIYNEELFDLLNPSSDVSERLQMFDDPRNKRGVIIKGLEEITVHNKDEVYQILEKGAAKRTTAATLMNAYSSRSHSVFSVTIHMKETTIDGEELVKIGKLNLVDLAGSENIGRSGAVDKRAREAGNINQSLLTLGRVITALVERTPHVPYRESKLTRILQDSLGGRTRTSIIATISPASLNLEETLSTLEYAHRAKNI
- protocol_summary: KSP endpoint assay (microtubule-stimulated ATPase, Biomol green, OD620)
- Assay type: biochemical
- study_conditions: endpoint assay; 2.5-10 nM KSP motor domain, 55 μg/mL microtubules, 100 μM ATP, 1 hour at room temperature; read-out: IC50 (KSP inhibitory activity, endpoint assay)
- Description: Serial dilutions of the compounds were prepared in a low binding, 96-well microtiter plate (Costar #3600) using 40% DMSO (Fisher BP231). The diluted compounds were added to a 384-well microtiter plate (Fisher 12-565-506). […] The 384-well microtiter plate was then transferred to an absorbance reader (Molecular Devices SpectraMax plus) and a single measurement was taken at 620 nm. […] Y is the % activity and X is the measured reading (OD620 or rate) […]
pIC50: −log10 of the molar value.
Returns condition met if the recorded pIC50 is greater than or equal to 7, and condition not met otherwise.

Solved cases (8 shown):
molecule: CC(C)(C)c1ccc2nc3sc(C(=O)NC4CNC4=O)cc3cc2c1 (stereo not shown)
label: condition not met

molecule: CC(C)(C)c1ccc2nc3sc(C(=O)NCCC#N)cc3cc2c1
label: condition not met

molecule: CC(C)(C)c1ccc2nc3sc(C(=O)NCC#N)cc3cc2c1
label: condition not met

molecule: CNCCNC(=O)c1cc2cc3cc(C(C)(C)C)ccc3nc2s1
label: condition not met

molecule: CC(C)(C)c1ccc2nc3sc(C(=O)N[C@H](CN)c4cccc(NC(=O)c5cnccn5)c4)cc3cc2c1
label: condition met

molecule: CC(C)(C)OC(=O)NCCNC(=O)c1cc2cc3cc(C(C)(C)C)ccc3nc2s1
label: condition not met

molecule: CC(C)(C)c1ccc2nc3sc(C(=O)N[C@H](CN)c4cccc(NC(=O)c5nccnc5N)c4)cc3cc2c1
label: condition met

molecule: Cc1cc(C(=O)Nc2cccc([C@@H](CN)NC(=O)c3cc4cc5cc(C(C)(C)C)ccc5nc4s3)c2)no1
label: condition met

**Q:** Threshold query (pIC50 >= 7) on COc1ccc(CN2CC(NC(=O)c3cc4cc5cc(C(C)(C)C)ccc5nc4s3)C2=O)c(OC)c1 (stereo not shown)
**A:** condition not met

**Q:** Try this molecule too: CC(C)(C)c1ccc2nc3sc(C(=O)N[C@H](CN)c4cccc(N)c4)cc3cc2c1
**A:** condition met

**Q:** Try this molecule too: CC(C)(C)c1ccc2nc3sc(C(=O)O)cc3cc2c1
**A:** condition not met

**Q:** Try this molecule too: CN(C)CCNC(=O)c1cc2cc3cc(C(C)(C)C)ccc3nc2s1
**A:** condition not met

**Q:** Try this molecule too: CC(C)(C)c1ccc2nc3sc(C(=O)N[C@H](CN)c4ccccc4)cc3cc2c1
**A:** condition met

* * *

- target_or_test_system: KSP motor domain (Homo sapiens, UniProt P52732)
- Sequence (P52732 18-359 limits assumed): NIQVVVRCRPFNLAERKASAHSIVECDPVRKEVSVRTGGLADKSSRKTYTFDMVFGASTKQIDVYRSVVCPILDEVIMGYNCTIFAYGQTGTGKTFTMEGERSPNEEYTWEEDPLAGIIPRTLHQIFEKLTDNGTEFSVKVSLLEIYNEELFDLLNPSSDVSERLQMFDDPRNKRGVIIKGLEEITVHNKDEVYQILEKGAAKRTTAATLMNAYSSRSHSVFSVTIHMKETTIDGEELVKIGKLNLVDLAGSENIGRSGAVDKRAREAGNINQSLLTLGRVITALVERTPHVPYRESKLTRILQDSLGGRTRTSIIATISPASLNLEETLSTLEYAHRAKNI
- protocol_summary: KSP endpoint assay (microtubule-stimulated ATPase, Biomol green, OD620)
- Format: biochemical
result_type: IC50 (nM)
Answers are plain numbers, in nM.

**Q:** Lookup: IC50 / KSP motor domain (Homo sapiens, UniProt P52732) / C[Si](C)(C)c1ccc2nc3sc(C(N)=O)cc3cc2c1 [Compound 12]
**A:** 38

* * *

- target_or_test_system: KSP motor domain (Homo sapiens)
- protocol_summary: KSP endpoint assay (microtubule-stimulated ATPase, Biomol green, OD620)
- Type: biochemical
- study_conditions: endpoint assay; 2.5-10 nM KSP motor domain, 55 μg/mL microtubules, 100 μM ATP, 1 hour at room temperature; read-out: IC50 (KSP inhibitory activity, endpoint assay)
result_type: pIC50
One number for each entry, as −log10 of the molar value.

// worked examples, pIC50 included
molecule: CC(C)(C)c1ccc2nc3sc(C(N)=O)cc3cc2c1 [Compound 2]
pIC50: 7.10
--
molecule: CC(C)(C)c1ccc2nc3sc(C#N)cc3cc2c1 [Compound 1]
pIC50: 6.80

Now take the following molecule into account.
**Q:** Lookup: pIC50 / KSP motor domain (Homo sapiens) / CC(C)(C)c1ccc2nc3sc(C(=O)NCCN)cc3cc2c1 [Compound 5]
**A:** 7.15
